chromatographic logP listing for selected molecules.
run description: logP determination by HPLC on reverse-phase column (C 18), EEC Directive 79/831 Annex V.A8
Type: physicochemical
assay setup: reverse-phase HPLC column (C 18), pH 2.3, pH 2.3, 0.1% aqueous phosphoric acid/acetonitrile gradient, 43° C.
property name: chromatographic logP

[[record]]
molecule = "Cc1nc(C(F)(F)F)c(C(=O)Nc2ccccc2-c2ccc(F)c(Cl)c2)s1 [Example 1]"
endpoint_value = 3.58

[[record]]
molecule = "Cc1nc(C(F)(F)F)c(C(=O)Nc2ccccc2-c2ccc(F)cc2F)s1 [Example 6]"
endpoint_value = 3.21

[[record]]
molecule = "Cc1nc(C(F)(F)F)c(C(=O)Nc2ccccc2-c2ccc(Cl)c(C(F)(F)F)c2)s1 [Example 11]"
endpoint_value = 4.03

[[record]]
molecule = "Cc1nc(C(F)(F)F)c(C(=O)Nc2ccccc2-c2cc(Cl)cc(Cl)c2)s1 [Example 14]"
endpoint_value = 3.63

[[record]]
molecule = "Cc1nc(C(F)(F)F)c(C(=O)Nc2ccccc2I)s1 [Example (IV-1)]"
endpoint_value = 2.81


----------
pest or weed control at 10 g/ha listing for selected compounds.
System: Sphaerotheca fuliginea
run description: Sphaerotheca Test (Cucumber)/Protective
Format: in vivo
assay setup: Podosphaera fuliginea, 168 h, application rate 10 g/ha, protective spray, evaluation 7 days after inoculation, 100% = no infection, read-out: % Efficacy
property name: pest or weed control at 10 g/ha (%)

[[record]]
compound = "Cc1nc(C(F)(F)F)c(C(=O)Nc2ccccc2-c2ccc(OC(F)(F)F)c(C(F)(F)F)c2)s1 [Example 13]"
property_name = "pest or weed control at 10 g/ha"
unit_abbreviation = "%"
endpoint_value = 85

[[record]]
compound = "Cc1nc(C(F)(F)F)c(C(=O)Nc2ccccc2-c2ccc(Cl)cc2F)s1 [Example 19]"
property_name = "pest or weed control at 10 g/ha"
unit_abbreviation = "%"
endpoint_value = 81

[[record]]
compound = "Cc1nc(C(F)(F)F)c(C(=O)Nc2ccccc2-c2ccc(Cl)cc2Cl)s1 [Example 17]"
property_name = "pest or weed control at 10 g/ha"
unit_abbreviation = "%"
endpoint_value = 90

[[record]]
compound = "Cc1nc(C(F)(F)F)c(C(=O)Nc2ccccc2-c2ccc(F)cc2)s1 [Example 3.37, reference compound]"
property_name = "pest or weed control at 10 g/ha"
unit_abbreviation = "%"
endpoint_value = 20

[[record]]
compound = "Cc1nc(C(F)(F)F)c(C(=O)Nc2ccccc2-c2ccc(Cl)c(F)c2)s1 [Example 7]"
property_name = "pest or weed control at 10 g/ha"
unit_abbreviation = "%"
endpoint_value = 95

[[record]]
compound = "Cc1nc(C(F)(F)F)c(C(=O)Nc2ccccc2-c2ccc(F)c(C)c2)s1 [Example 10]"
property_name = "pest or weed control at 10 g/ha"
unit_abbreviation = "%"
endpoint_value = 98

[[record]]
compound = "Cc1nc(C(F)(F)F)c(C(=O)Nc2ccccc2-c2ccc(F)c(Cl)c2)s1 [Example 1]"
property_name = "pest or weed control at 10 g/ha"
unit_abbreviation = "%"
endpoint_value = 83

[[record]]
compound = "Cc1nc(C(F)(F)F)c(C(=O)Nc2ccccc2-c2ccc(F)c(C(F)(F)F)c2)s1 [Example 9]"
property_name = "pest or weed control at 10 g/ha"
unit_abbreviation = "%"
endpoint_value = 90

[[record]]
compound = "Cc1nc(C(F)(F)F)c(C(=O)Nc2ccccc2-c2ccc(Cl)c(C(F)(F)F)c2)s1 [Example 11]"
property_name = "pest or weed control at 10 g/ha"
unit_abbreviation = "%"
endpoint_value = 100

[[record]]
compound = "Cc1nc(C(F)(F)F)c(C(=O)Nc2ccccc2-c2ccc(F)c(F)c2)s1 [Example 4]"
property_name = "pest or weed control at 10 g/ha"
unit_abbreviation = "%"
endpoint_value = 90

[[record]]
compound = "Cc1nc(C(F)(F)F)c(C(=O)Nc2ccccc2-c2ccc(C)c(C(F)(F)F)c2)s1 [Example 12]"
property_name = "pest or weed control at 10 g/ha"
unit_abbreviation = "%"
endpoint_value = 100

[[record]]
compound = "Cc1nc(C(F)(F)F)c(C(=O)Nc2ccccc2-c2ccc(Cl)cc2)s1 [reference compound]"
property_name = "pest or weed control at 10 g/ha"
unit_abbreviation = "%"
endpoint_value = 30


----------
chromatographic logP listing for selected compounds.
run description: logP determination by HPLC on reverse-phase column (C 18), EEC Directive 79/831 Annex V.A8
Format: physicochemical
assay setup: reverse-phase HPLC column (C 18), pH 2.3, pH 2.3, 0.1% aqueous phosphoric acid/acetonitrile gradient, 43° C.
property name: chromatographic logP

[[record]]
compound = "Cc1nc(C(F)(F)F)c(C(=O)Nc2ccccc2-c2ccc(OC(F)(F)F)c(C(F)(F)F)c2)s1 [Example 13]"
endpoint_value = 4.08

[[record]]
compound = "Cc1nc(C(F)(F)F)c(C(=O)Nc2ccccc2-c2ccc(Cl)cc2F)s1 [Example 19]"
endpoint_value = 3.52

[[record]]
compound = "Cc1nc(C(F)(F)F)c(C(=O)Nc2ccccc2-c2ccc(Cl)cc2C)s1 [Example 16]"
endpoint_value = 4.23

[[record]]
compound = "Cc1nc(C(F)(F)F)c(C(=O)Nc2ccccc2Br)s1 [Example (IV-2)]"
endpoint_value = 2.79

[[record]]
compound = "Nc1ccccc1-c1ccc(F)c(Cl)c1 [Example (III-1)]"
endpoint_value = 3.01

[[record]]
compound = "Cc1nc(C(F)(F)F)c(C(=O)Nc2ccccc2-c2ccc(Cl)cc2Cl)s1 [Example 17]"
endpoint_value = 3.86

[[record]]
compound = "Cc1nc(C(F)(F)F)c(C(=O)Nc2ccccc2-c2ccc(F)c(C(F)(F)F)c2)s1 [Example 9]"
endpoint_value = 3.76

[[record]]
compound = "Cc1nc(C(F)(F)F)c(C(=O)Nc2ccccc2-c2ccc(F)c(F)c2)s1 [Example 4]"
endpoint_value = 3.31

[[record]]
compound = "Cc1nc(C(F)(F)F)c(C(=O)Nc2ccccc2-c2ccc(Cl)c(F)c2)s1 [Example 7]"
endpoint_value = 3.61

[[record]]
compound = "Cc1nc(C(F)(F)F)c(C(=O)Nc2ccccc2-c2ccc(C)c(C(F)(F)F)c2)s1 [Example 12]"
endpoint_value = 4.03

[[record]]
compound = "Cc1nc(C(F)(F)F)c(C(=O)Nc2ccccc2-c2cc(F)cc(F)c2)s1 [Example 5]"
endpoint_value = 3.35


----------
System: Rhizoctonia solani
run description: In vitro Test for the ED50 Determination in Microorganisms
Assay type: cell-based
assay setup: 50% inhibition of fungal growth, tested at 0.1, 1, 10 and 100 ppm, 22° C., 3–5 days, photometric 620 nm
property name: ED50

[[record]]
compound = "Cc1nc(C(F)(F)F)c(C(=O)Nc2ccccc2-c2ccc(Cl)cc2C)s1"
endpoint_value = "0.45 ppm"

[[record]]
compound = "Cc1nc(C(F)(F)F)c(C(=O)Nc2ccccc2-c2ccc(F)cc2)s1 [Example 3.37, reference compound]"
endpoint_value = "> 100 ppm"

[[record]]
compound = "Cc1nc(C(F)(F)F)c(C(=O)Nc2ccccc2-c2ccc(Cl)c(C(F)(F)F)c2)s1"
endpoint_value = "< 0.1 ppm"

[[record]]
compound = "Cc1nc(C(F)(F)F)c(C(=O)Nc2ccccc2-c2ccc(F)c(C)c2)s1"
endpoint_value = "<0.1 <0.1 ppm"

[[record]]
compound = "Cc1nc(C(F)(F)F)c(C(=O)Nc2ccccc2-c2cc(Cl)cc(Cl)c2)s1"
endpoint_value = "< 0.1 ppm"

[[record]]
compound = "Cc1nc(C(F)(F)F)c(C(=O)Nc2ccccc2-c2ccc(Cl)cc2)s1 [reference compound]"
endpoint_value = ">100>100 ppm"

[[record]]
compound = "Cc1nc(C(F)(F)F)c(C(=O)Nc2ccccc2-c2ccc(C)c(C(F)(F)F)c2)s1"
endpoint_value = "< 0.1 ppm"

